Attribution: patent US12552800B2

- studyTarget: PD brain-derived a-syn aggregates (Homo sapiens)
- Construct: from tissue; host or cells: human PD donor brain, sarkosyl-insoluble 100,000 x g pellet
- experimentalDetails: Micro-radiobinding competition assay against Example-1 [^3H-1] (Table 8)
- Format: binding
- runConditions: 1 μM non-radiolabelled example compound vs Example-1 [^3H-1] ligand; human PD brain-derived a-syn aggregates
Returns one of Y or N; Y when Competition at 1 μM (%) is >= 90%.

Does O=C1c2cn(-c3ccc(N4CC[C@H](F)C4)nc3)nc2CN1c1ccncc1O have a reported Competition at 1 μM (%) of at least 90%?
N

Does Cc1cc(N2Cc3nn(-c4ccc(N5CC[C@H](F)C5)nc4)cc3C2=O)ccn1 have a reported Competition at 1 μM (%) of at least 90%?
Y

Does N#Cc1cc(N2Cc3nn(-c4ccc(N5CC[C@@H](F)C5)nc4)cc3C2=O)ccn1 have a reported Competition at 1 μM (%) of at least 90%?
Y

Does O=C1c2cn(-c3ccc(N4CC[C@H](F)C4)nc3)nc2CN1c1ccccc1O have a reported Competition at 1 μM (%) of at least 90%?
N

Does O=C1c2cn(-c3ccc(N4CC[C@@H](F)C4)nc3)nc2CN1c1cncc(F)c1 have a reported Competition at 1 μM (%) of at least 90%?
N

Does Cc1ccc(N2Cc3nn(-c4ccc(N5CC[C@@H](F)C5)nc4)cc3C2=O)nc1 have a reported Competition at 1 μM (%) of at least 90%?
Y

Does O=C1c2cn(-c3ccc(N4CC[C@H](F)C4)nc3)nc2CN1c1ccccn1 have a reported Competition at 1 μM (%) of at least 90%?
Y

###

What Competition at 100 nM (%) was measured for each of the following?
- studyTarget: PD brain-derived a-syn aggregates (Homo sapiens)
- Construct: from tissue; host or cells: human PD donor brain, sarkosyl-insoluble 100,000 x g pellet
- experimentalDetails: Micro-radiobinding competition assay against Example-1 [^3H-1] (Table 8)
- Format: binding
- runConditions: 100 nM non-radiolabelled example compound vs Example-1 [^3H-1] ligand; human PD brain-derived a-syn aggregates
The figure you give is taken to be in %; do not add the unit.

Return Competition at 100 nM (%) (reported value) for this compound: CC(C)n1cc(N2Cc3nn(-c4ccc(N5CC[C@H](F)C5)nc4)cc3C2=O)cn1 [Example 119]
12

Return Competition at 100 nM (%) (reported value) for this compound: O=C1c2cn(-c3ccc(N4CC[C@H](F)C4)nc3)nc2CN1c1ccncc1 [Example 54]
71

Return Competition at 100 nM (%) (reported value) for this compound: O=C1c2cn(-c3ccc(N4CC[C@H](F)C4)nc3)nc2CN1c1ccc(F)cc1 [Example 64]
54

Return Competition at 100 nM (%) (reported value) for this compound: O=C1c2cn(-c3ccc(N4CC[C@@H](F)C4)nc3)nc2CN1c1ccc(O)cn1 [Example 162]
92

Return Competition at 100 nM (%) (reported value) for this compound: O=C1c2cn(-c3ccc(N4CC[C@@H](F)C4)nc3)nc2CN1c1cccc(O)c1 [Example 177]
76

Return Competition at 100 nM (%) (reported value) for this compound: O=C1c2cn(-c3ccc(N4CC[C@@H](F)C4)nc3)nc2CN1c1cnccn1 [Example 7]
87

Return Competition at 100 nM (%) (reported value) for this compound: O=C1c2cn(-c3ccc(N4CC[C@@H](F)C4)nc3)nc2CN1c1ncccn1 [Example 15]
61

Return Competition at 100 nM (%) (reported value) for this compound: O=C1c2cn(-c3ccc(N4CC[C@@H](F)C4)nc3)nc2CN1c1ccnc(O)c1 [Example 171]
48

Return Competition at 100 nM (%) (reported value) for this compound: CC(C)c1ccc(-n2cc3c(n2)CN(c2cccc(F)n2)C3=O)cn1 [Example 157]
21

Return Competition at 100 nM (%) (reported value) for this compound: Cc1cc(N2Cc3nn(-c4ccc(N5CC[C@@H](F)C5)nc4)cc3C2=O)ccn1 [Example 102]
59

Return Competition at 100 nM (%) (reported value) for this compound: N#Cc1cccc(N2Cc3nn(-c4ccc(N5CC[C@H](F)C5)nc4)cc3C2=O)c1 [Example 65]
64

Return Competition at 100 nM (%) (reported value) for this compound: O=C1c2cn(-c3ccc(N4CC[C@H](F)C4)cn3)nc2CN1c1cccnc1 [Example 72]
45

Return Competition at 100 nM (%) (reported value) for this compound: N#Cc1cc(N2Cc3nn(-c4ccc(N5CC[C@H](F)C5)nc4)cc3C2=O)ccn1 [Example 111]
82

Return Competition at 100 nM (%) (reported value) for this compound: COc1ccc(-n2cc3c(n2)CN(c2cccc(F)n2)C3=O)cn1 [Example 159]
46

Return Competition at 100 nM (%) (reported value) for this compound: O=C1c2cn(-c3ccc(N4CCOCC4)nc3)nc2CN1c1cncc(F)n1 [Example 141]
51

Return Competition at 100 nM (%) (reported value) for this compound: O=C1c2cn(-c3ccc(NC4CC(F)C4)nc3)nc2CN1c1ccncc1 (stereo not drawn) [Example 90]
18

Return Competition at 100 nM (%) (reported value) for this compound: O=C1c2cn(-c3ccc(N4CC[C@@H](F)C4)nc3)nc2CN1c1ccccn1 [Example 5]
68

Return Competition at 100 nM (%) (reported value) for this compound: O=C1c2cn(-c3ccc(N4CCCC4)nc3)nc2CN1c1nccnc1F [Example 42]
57
